assay: Mouse pharmacokinetics integrated in efficacy study (blood levels); details: female, BALB/c, whole blood, po, 50 mg/kg, AUC(0-8h), infected mice, 50 mg/kg oral, day 10
Assay Readout: AUC(0-t) (ng·h/mL)
Only the number, expressed in ng·h/mL, is required.

Q: State the recorded AUC(0-t) for this entry: `Cl.Cl.O=c1nc(NCCCNCc2cc3c(Cl)cc(Cl)cc3[nH]2)[nH]c2ccccc12`
Ans: 23300

###

Target: LdMetRS (Leishmania donovani)
Assay: LdMetRS biochemical enzyme assay (BIOMOL Green)
Settings: Ki app (Morrison equation), active enzyme concentration 39 nM as constant
Method: LdMetRS Assay Development and Kinetic Parameter Determinations Activity of the LdMetRS enzyme was determined by monitoring levels of pyrophosphate released during the first step of the enzymatic reaction. The pyrophosphate formed was converted to two inorganic phosphate molecules using a pyrophosphatase enzyme and levels of the resulting phosphate molecules measured using the BIOMOL® Green reagent (Enzo Life Sciences) 2. […]
Assay Readout: pKi
Expect pKi as a plain number equal to -log10 of the molar concentration.

Q: State the recorded pKi for this entry: Cl.Cl.O=c1nc(NCCCNCc2cc3c(Cl)cc(Cl)cc3[nH]2)[nH]c2ccccc12 [DDD806905]
Ans: 7.39

###

assay: Mouse pharmacokinetics integrated in efficacy study (blood levels); conditions: female, BALB/c, whole blood, po, 50 mg/kg, AUC(0-8h), infected mice, 50 mg/kg oral, day 1
Assay Readout: AUC(0-t) (ng·h/mL)
Only the number, expressed in ng·h/mL, is required.

Q: State the recorded AUC(0-t) for this entry: `Cl.Cl.O=c1nc(NCCCNCc2cc3c(Cl)cc(Cl)cc3[nH]2)[nH]c2ccccc12`
Ans: 15800

###

tested on: L. donovani axenic amastigotes; assay: Leishmania axenic amastigote viability assay; type: cell-based, Leishmania donovani; conditions: Leishmania donovani; Table 1; read-out: Leishmania Axenic Amastigote EC50
Catalogue of compounds with associated EC50
Only the number, expressed in µM, is required.

>>> print(df.to_string())
                                   compound  assay_readout  unit_spec  observed_measurement
0  CN(CCCNc1nc(=O)c2ccccc2[nH]1)Cc1cc2c(Cl)cc(Cl)cc2[nH]1           EC50         µM                    18
1  O=c1nc(NCCCNS(=O)(=O)c2cc(Cl)cc(Cl)c2)[nH]c2ccccc12           EC50         µM                    19
2  O=C(CCNc1nc(=O)c2ccccc2[nH]1)NCc1cc(Cl)cc(Cl)c1           EC50         µM                    22
3  Cl.Cl.O=c1nc(NCCCNCc2cc3c(Cl)cc(Cl)cc3[nH]2)[nH]c2ccccc12           EC50         µM                    14

Switching to the query record.
Q: State the recorded EC50 for this entry: `O=c1nc(NCCCNCc2cc(Cl)cc(Cl)c2)[nH]c2ccccc12`
Ans: 38

###

molecular target: LdMetRS (Leishmania donovani, UniProt A0A3Q8IBX2); assay: LdMetRS biochemical enzyme assay (BIOMOL Green); conditions: LdMetRS IC50, Fig S5A: methionine 500 µM, ATP 500 µM
Sequence (A0A3Q8IBX2 entry or part of it): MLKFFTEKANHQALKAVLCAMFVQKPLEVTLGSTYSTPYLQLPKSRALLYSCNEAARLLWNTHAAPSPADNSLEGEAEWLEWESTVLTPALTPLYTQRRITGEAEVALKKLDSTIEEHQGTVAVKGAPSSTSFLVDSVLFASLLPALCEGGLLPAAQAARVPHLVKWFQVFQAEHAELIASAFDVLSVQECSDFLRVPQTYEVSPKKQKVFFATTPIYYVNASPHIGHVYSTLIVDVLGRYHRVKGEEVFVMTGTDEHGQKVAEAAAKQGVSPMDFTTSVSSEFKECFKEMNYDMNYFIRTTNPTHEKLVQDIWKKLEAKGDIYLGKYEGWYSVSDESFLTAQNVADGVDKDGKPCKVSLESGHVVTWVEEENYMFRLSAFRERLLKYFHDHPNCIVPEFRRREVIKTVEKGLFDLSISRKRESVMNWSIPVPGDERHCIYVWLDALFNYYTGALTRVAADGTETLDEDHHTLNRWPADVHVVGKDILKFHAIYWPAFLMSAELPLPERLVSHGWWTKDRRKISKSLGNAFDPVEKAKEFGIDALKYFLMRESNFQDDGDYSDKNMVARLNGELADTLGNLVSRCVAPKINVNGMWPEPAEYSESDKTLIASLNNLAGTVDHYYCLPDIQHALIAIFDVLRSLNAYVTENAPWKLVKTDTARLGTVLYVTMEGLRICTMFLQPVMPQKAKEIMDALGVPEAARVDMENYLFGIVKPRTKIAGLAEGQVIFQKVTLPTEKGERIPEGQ
Assay Readout: pIC50
Expect pIC50 as a plain number equal to -log10 of the molar concentration.

Q: State the recorded pIC50 for this entry: `Cl.Cl.O=c1nc(NCCCNCc2cc3c(Cl)cc(Cl)cc3[nH]2)[nH]c2ccccc12`
Ans: 6.36

###

target: UniProt A0A3Q8IBX2; experiment: LdMetRS biochemical enzyme assay (BIOMOL Green); conditions: Supplementary Table 1; read-out: LdMetRS IC50
# note: boundary value 6 µM maps to rule not met; IC50 below it maps to rule met

Q: Below 6 µM on IC50? Entry `COc1cc(C(F)(F)F)cc2[nH]c(CNCCCNc3nc4ccccc4[nH]3)cc12`
Ans: rule not met

Q: Below 6 µM on IC50? Entry `Cc1cc(C)c2cc(CNCCCNc3nc4ccccc4[nH]3)[nH]c2c1`
Ans: rule met

Q: Below 6 µM on IC50? Entry `OCc1c(Cl)cc(Cl)cc1CNCCCNc1nc2ccccc2[nH]1`
Ans: rule not met

Q: Below 6 µM on IC50? Entry `Clc1ccc(Cl)c2[nH]c(CNCCCNc3nc4ccccc4[nH]3)cc12`
Ans: rule not met

Q: Below 6 µM on IC50? Entry `CCOc1c(Cl)cc(Cl)cc1CNCCCNc1nc2ccccc2[nH]1`
Ans: rule met

###

System: L. donovani axenic amastigotes
Assay: Leishmania axenic amastigote viability assay
Assay type: cell-based, Leishmania donovani
Conditions: Leishmania donovani; Table 1; read-out: Leishmania Axenic Amastigote EC50
Description: carried out as described above using 5%, 10% and 20% FBS in the media. To examine the effect of the methionine concentration on the potency of DDD806905 parasites were grown in the presence of drug and in the presence (or absence) of 20-fold excess methionine (0.3 g/l). […] Amastigotes were incubated in the presence of THP-1 macrophages for 16 h. […] For each well, i) THP-1 cell count (cytotoxicity readout) and ii) average number of amastigotes per cell (potency readout) were […]
Assay Readout: EC50

                                   compound  observed_measurement
0  O=c1nc(OCCCNCc2cc3c(Cl)cc(Cl)cc3[nH]2)[nH]c2ccccc12               > 50 µM
1  O=C(NCCCNc1nc(=O)c2ccccc2[nH]1)c1cc2c(Cl)cc(Cl)cc2[nH]1               > 50 µM

Switching to the query record.
Q: State the recorded EC50 for this entry: `O=c1nc(NCCCCCc2cc(Cl)cc(Cl)c2)[nH]c2ccccc12`
Ans: > 50 µM
